Source of measurements: patent US20080153888A1

Assign % Bladder Volume Capacity (vs basal) ± S.E. to each entry below.
- Test system: anesthetized rats with acetic acid bladder infusion (animal model of overactive bladder)
- assay-summary: Cystometry in anesthetized rats with acetic acid bladder infusion
- Format: in vivo, rat
- condition-notes: single drug, dose 1.0 mg/kg i.v., cumulative administration
Quick reminder: number only, in %, skip the unit.

Hello, please tell me recorded % Bladder Volume Capacity (vs basal) ± S.E. for this one: CS(=O)(=O)Nc1ccc([N+](=O)[O-])cc1Oc1ccccc1 [Nimesulide]
36

Hello, please tell me recorded % Bladder Volume Capacity (vs basal) ± S.E. for this one: CC(C(=O)O)c1ccc(-c2ccccc2)c(F)c1 (stereo not shown)
49

Hello, please tell me recorded % Bladder Volume Capacity (vs basal) ± S.E. for this one: `O=C(O)Cc1ccccc1Nc1c(Cl)cccc1Cl`
63

Hello, please tell me recorded % Bladder Volume Capacity (vs basal) ± S.E. for this one: CC1=C(CC(=O)O)c2cc(F)ccc2/C1=C\c1ccc([S+](C)[O-])cc1 (stereo not shown)
39

* * *

- Test system: anesthetized rats with acetic acid bladder infusion (animal model of overactive bladder)
- assay-summary: Cystometry in anesthetized rats with acetic acid bladder infusion
- Format: in vivo, rat
- condition-notes: single drug, dose 10 mg/kg i.v., cumulative administration
measure: % Bladder Volume Capacity (vs basal) ± S.E. (%)
Quick reminder: number only, in %, skip the unit.

Hello, please tell me recorded % Bladder Volume Capacity (vs basal) ± S.E. for this one: `CC(C)C[C@H](CN)CC(=O)O`
31

Hello, please tell me recorded % Bladder Volume Capacity (vs basal) ± S.E. for this one: CS(=O)(=O)Nc1ccc([N+](=O)[O-])cc1Oc1ccccc1 [Nimesulide]
47

Hello, please tell me recorded % Bladder Volume Capacity (vs basal) ± S.E. for this one: CC1=C(CC(=O)O)c2cc(F)ccc2/C1=C\c1ccc([S+](C)[O-])cc1 (stereo not shown)
38

Hello, please tell me recorded % Bladder Volume Capacity (vs basal) ± S.E. for this one: CC(C(=O)O)c1ccc(-c2ccccc2)c(F)c1 (stereo not shown)
73

* * *

- Test system: anesthetized rats with acetic acid bladder infusion (animal model of overactive bladder)
- assay-summary: Cystometry in anesthetized rats with acetic acid bladder infusion
- Assay type: in vivo, rat
- condition-notes: single drug, i.v., cumulative dose-response
measure: ED60 (CL 95%) of recovery of Bladder Volume Capacity to basal value

Hello, please tell me recorded ED60 (CL 95%) of recovery of Bladder Volume Capacity to basal value for this one: O=C(O)Cc1ccccc1Nc1c(Cl)cccc1Cl [Diclofenac, diclofenac]
0.85 (0.80-0.90)

Hello, please tell me recorded ED60 (CL 95%) of recovery of Bladder Volume Capacity to basal value for this one: CC(C)C[C@H](CN)CC(=O)O [Pregabalin, pregabalin]
300.5 (n.c.-n.c.)

Hello, please tell me recorded ED60 (CL 95%) of recovery of Bladder Volume Capacity to basal value for this one: CC1=C(CC(=O)O)c2cc(F)ccc2/C1=C\c1ccc([S+](C)[O-])cc1 (stereo not drawn) [Sulindac, sulindac]
>30

Hello, please tell me recorded ED60 (CL 95%) of recovery of Bladder Volume Capacity to basal value for this one: CS(=O)(=O)Nc1ccc([N+](=O)[O-])cc1Oc1ccccc1 [Nimesulide]
>>10

Hello, please tell me recorded ED60 (CL 95%) of recovery of Bladder Volume Capacity to basal value for this one: CC(C(=O)O)c1ccc(-c2ccccc2)c(F)c1 (stereo not drawn) [Flurbiprofen, flurbiprofen]
2.34 (nc-4.77)

Hello, please tell me recorded ED60 (CL 95%) of recovery of Bladder Volume Capacity to basal value for this one: NCC1(CC(=O)O)CCCCC1 [Gabapentin]
112 (75-149)

* * *

- Tested on: anesthetized rats with acetic acid bladder infusion (animal model of overactive bladder)
- assay-summary: Cystometry in anesthetized rats with acetic acid bladder infusion;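 further: Single-filling cystometrograms via bladder-dome catheter, basal values taken after 60 min saline infusion, BVC as mL infused until micturition, MP as peak intravesical pressure (mm Hg)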
- Format: in vivo, rat
- condition-notes: single drug, dose 0.3 mg/kg i.v., cumulative administration
measure: % Bladder Volume Capacity (vs basal) ± S.E. (%)
Quick reminder: number only, in %, skip the unit.

Give % Bladder Volume Capacity (vs basal) ± S.E. for this entry on anesthetized rats with acetic acid bladder infusion (animal model of overactive bladder): `O=C(O)Cc1ccccc1Nc1c(Cl)cccc1Cl`
41

Give % Bladder Volume Capacity (vs basal) ± S.E. for this entry on anesthetized rats with acetic acid bladder infusion (animal model of overactive bladder): CC1=C(CC(=O)O)c2cc(F)ccc2/C1=C\c1ccc([S+](C)[O-])cc1 (stereo not shown)
27

Give % Bladder Volume Capacity (vs basal) ± S.E. for this entry on anesthetized rats with acetic acid bladder infusion (animal model of overactive bladder): CS(=O)(=O)Nc1ccc([N+](=O)[O-])cc1Oc1ccccc1 [Nimesulide]
38

Give % Bladder Volume Capacity (vs basal) ± S.E. for this entry on anesthetized rats with acetic acid bladder infusion (animal model of overactive bladder): CC(C(=O)O)c1ccc(-c2ccccc2)c(F)c1 (stereo not shown)
42
